experimental.system: T1, recombinant murine midkine (muMK) (murine, UniProt P12025 23-140)
T1 construct: also called murine MK; Murine MK
T1 sequence (looked up): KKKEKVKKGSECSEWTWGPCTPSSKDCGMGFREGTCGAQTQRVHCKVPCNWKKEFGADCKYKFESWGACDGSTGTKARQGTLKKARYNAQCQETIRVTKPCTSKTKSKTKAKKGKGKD
protocol.text: ELISA, plate coated with muMK
test.readout: pEC50
One number for each entry, as −log10 of the molar value.

binder | pEC50
IP14-H1L2 (antibody, V domains shown, also called Hv1 Lv2) VH: QVQLVQSGAEVKKPGHSVKVSCKASGQSFSSYWMNWVRQAPGQGLEWIGMIHPSDSETILNQKFKDKATLTVDISTSTAYMELSSPRSEDTAVYYCSSWSAKRGDFWGQGTLVTVSS VL: EIVLTQSPATLSLSPGERATLSCRASESISNNLHWYQQKPGQAPRLLIKYASQSISGIPARFSGSGPGTDFTLTISSVEPEDFAVYYCQQSNSWPLTFGGGTKLEIKR | 10.29

Here is the next item to consider.
Data request: Sample IP14-H5L7 (antibody, V domains shown, also called Hv5 Lv7) VH: QVQLVQSGGGLVQPGGSLRLSCAASGQSFSSYWMNWVRQAPGQGLEWIGMIHPSDSETILNQKFKDKATLTVDISKNTAYLQMNSLRAEDTAVYYCSSWSAKRGDFWGQGTLVTVSS VL: DIVLTQSPATLSLSPGERANLSCRASESISNNLHWYQQKPHQAPRLLIYYASQSISGVPARFSGSGSGTDFNLTISSVEPEDFAVYYCQQSNSWPLTFGQGTKVEIKR — what was its pEC50?
Data returned: 10.23
